- assay-info: small-molecule microarray binders of probe aWnt5a, primary screen, biochemical, biotinylated probe, 635/667 nm fluorescence (AID 1113);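 further: score merges 667 nm fluorescence intensity with signal-to-noise per printed feature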
- measurement-context: higher = more signal
value-type: composite z-score
The answer should be written as a number, with no unit following it.

// below: answered compounds
Task item: Please look at this compound and report its composite z-score: `CO[C@@H]1COC(=O)CC=C[C@@H](C)[C@H](OC)COC(=O)[C@H](COCc2ccccc2)NC(=O)CC=C[C@H]1C`
Reply: -0.232

Task item: Provide only the value of recorded composite z-score for N#Cc1ccc(NN2C(C(O)c3cc(C(F)(F)F)cc(C(F)(F)F)c3)C=CC3C(=O)N(c4ccccc4)C(=O)C32)cc1 (stereo not given)
Reply: -0.0009

Task item: Look up and report measured composite z-score for this entry: `CC(C)CON=C1[C@H]2CCn3c(=O)n(-c4ccccc4)c(=O)n3[C@H]2[C@H](O)[C@@H]2O[C@H]12`
Reply: -0.291

Task item: Fill in composite z-score for record `C[C@@H]1C=CCC(=O)OC[C@H](C)C(=O)N2CCC[C@H]2C(=O)OC1`
Reply: -0.22

Task item: Give the reported value of composite z-score for this record: `O=C1O[C@@H](c2ccccc2)[C@@H](c2ccccc2)N2[C@@H](c3ccc(OCCO)cc3)[C@]3(C(=O)Nc4ccc(C#CCCO)cc43)[C@@H](C(=O)N3CCCCCCC3)[C@H]12`
Reply: 0.935

Task item: Retrieve composite z-score measured for `CO[C@H]1COC(=O)[C@@H]2CCCN2C(=O)CC=C[C@@H](C)[C@H](OC)COC(=O)CC=C[C@@H]1C` and print it.
Reply: -0.117

Task item: Complete the entry with composite z-score for N#Cc1ccc(NN2C(C(O)c3cccc4ccccc34)C=CC3C(=O)N(c4ccccc4)C(=O)C32)cc1 (stereo not given)
Reply: 0.139

Task item: Specify reported composite z-score for the compound shown: `CCc1cc2c(nc1CC)CCN(CCC(C)=NOC[C@@H](O)[C@H]1O[C@@H]3OC(C)(C)O[C@@H]3[C@H]1O)C2`
Reply: -0.0607

Task item: Check the records and state composite z-score for COC(=O)[C@H](C)NC(=O)CCC1CC(OC(=O)NCc2cccc3ccccc23)CC2(CCCC(COC(=O)NCCc3ccc(Cl)cc3)O2)O1 (stereo not given in full)
Reply: -0.0075

Task item: Provide composite z-score value for the following compound: `CC(=O)OC[C@H]1O[C@H](C#CCCCc2ccccc2)C=C[C@@H]1OC(C)=O`
Reply: -0.118

New cases:
Task item: Report measured composite z-score; entry is `CCOC(=O)NN=C1C[C@@H](O)[C@@H](O)[C@@H]2[C@@H]3C(=O)N(C[C@@H]4CCCO4)C(=O)[C@@H]3CC[C@@H]12`
Reply: -0.0721

Task item: Indicate the recorded composite z-score value for this compound: COC(=O)CC1OC1[C@H](C)[C@@H](OC)C(C)C (stereo not given in full)
Reply: -0.1
